These measurements were taken from ChEMBL document CHEMBL4513216.

System: Plasmodium berghei
ASSAY_METHOD_TEXT: Screen against P. berghei liver stage (PbLuc), transformed with Luciferase, at 10uM
Assay type: functional, HepG2
CONDITION_INFO: tested at 10 uM
Among all 69,000 compounds or so, about 8,600 (12%) showed an effect of 50% or more. The sample holds strong results, similar compounds and a random draw of the others, so the mix is not that of the screen.
Please use True for INHIBITION under 30% and False for everything else, ties included.

compound="CCN(CC)Cc1ccc(C(=O)N2CCCCC2Cn2cccn2)o1 (configuration not stated)" measurement_target="Plasmodium berghei" group_label=True
compound="Cc1cnn(CC2CCCCN2C(=O)c2ccc3nncn3c2)c1 (configuration not stated)" measurement_target="Plasmodium berghei" group_label=False
compound="COc1cc(C)ccc1OCCC(=O)N1CCCC1Cn1cccn1 (configuration not stated)" measurement_target="Plasmodium berghei" group_label=False
compound="COc1ccccc1OCCC(=O)N1CCCC1Cn1cccn1 (configuration not stated)" measurement_target="Plasmodium berghei" group_label=False
compound="CC(=O)Nc1nc(C(=O)N2CCCCC2Cn2cccn2)cs1 (configuration not stated)" measurement_target="Plasmodium berghei" group_label=True
compound="Cc1cc(C)nc(CN(C)C(=O)C(c2cccnc2)N2CCCC2)c1 (configuration not stated)" measurement_target="Plasmodium berghei" group_label=False
compound=Cc1ccc(S(=O)(=O)N(CCO)C2CC2)cc1N(C)C measurement_target="Plasmodium berghei" group_label=True
compound="Cc1cc(C)nc(Nc2ccc(C3CCCCN3)cn2)n1 (configuration not stated)" measurement_target="Plasmodium berghei" group_label=True

Please determine if O=C(NCCNc1cccnc1)C(c1cccnc1)N1CCCC1 (configuration not stated) is below 30% in terms of INHIBITION.
True

* * *

Tested on: Plasmodium berghei
ASSAY_METHOD_TEXT: Screen against P. berghei liver stage (PbLuc), transformed with Luciferase, at 10uM
Assay type: functional, HepG2
CONDITION_INFO: tested at 10 uM
Out of some 69,000 compounds screened, about 8,600 (12%) showed an effect of 50% or more. For the sample, strong results were picked, then their nearest neighbours and some compounds at random.
# INHIBITION values compiled below
Numbers only here, please. The scale is %.

Here are 5 compounds together with their reported answers.
compound=Cc1nc(CN2CCN(C(=O)c3sccc3C)CC2)cs1 value_measured=-117
compound=Cc1ccc(NC2CCN(C(=O)c3ccc(F)c(C)c3)CC2)nn1 value_measured=47.1
compound=CCCc1nnc(N2CCC(N3CCCCCC3)CC2)o1 value_measured=23.3
compound="CCS(=O)(=O)N1CCN(C(C)c2ccccc2OC)CC1 (centres undefined)" value_measured=13.5
compound="O=C(O)CN(Cc1ccsc1)CC1CCCO1 (centres undefined)" value_measured=8.7

Look up INHIBITION of COCCN1CCCC(C)(c2cc(O)[nH]n2)C1 (centres undefined) and report it.
-3.02

Look up INHIBITION of CCc1nc2ccccc2c(=O)n1CC1(O)CCN(C(=O)COC)CC1 and report it.
7.52

Look up INHIBITION of CCCc1nnc(N2CCC(N3CCCC3)CC2)o1 and report it.
79.8

Look up INHIBITION of CNc1cc(C)nc(C2CN(Cc3cncs3)CCO2)c1 (centres undefined) and report it.
11.1

Look up INHIBITION of COc1cc(OC)cc(-c2cc(CN)nc3ccnn23)c1 and report it.
-18.2

Look up INHIBITION of CC(C)c1cc(C(=O)N2CCCC(c3cc(=O)nc4n3CCC4)C2)no1 (centres undefined) and report it.
18.4

* * *

# INHIBITION values compiled below
Tested on: Plasmodium berghei
ASSAY_METHOD_TEXT: Screen against P. berghei liver stage (PbLuc), transformed with Luciferase, at 10uM
Format: functional, HepG2
CONDITION_INFO: tested at 10 uM
Out of some 69,000 compounds screened, about 8,600 (12%) showed an effect of 50% or more. The sample as a whole holds a higher share of strong results than the screen did.
Numbers only here, please. The scale is %.

Look up INHIBITION of Cn1cnc2c1C(COCC1CCOCC1)CN(C(=O)C1CC=CC1)C2 (stereo unspecified) and report it.
45.1

Look up INHIBITION of O=C(O)c1ccnc(-c2ccnc(N3CCC4(CCO4)CC3)n2)c1 and report it.
40.2

Look up INHIBITION of CCc1cc(N2CCC(Nc3ccc4nnc(C)n4n3)CC2)ncn1 and report it.
46.4

Look up INHIBITION of Cc1ccc(N2CCC(Nc3ccc4nnc(C)n4n3)CC2)nc1 and report it.
58.7

Look up INHIBITION of COc1nc2ccccc2cc1C1CC(=O)Nc2n[nH]c(C3CCC3)c21 (stereo unspecified) and report it.
-1.7

Look up INHIBITION of CN(C)C(=O)N1CCN(C(=O)c2cccc(Cl)c2)CC2(CNC(=O)C2)C1 (stereo unspecified) and report it.
79.6

Look up INHIBITION of CN(C)C(=O)N1CCN(C(=O)c2ccc(Cl)cc2)CC2(CNC(=O)C2)C1 (stereo unspecified) and report it.
21.7

Look up INHIBITION of Cc1ccc(N2CCC(NC(C)c3cccs3)CC2)nc1 (stereo unspecified) and report it.
22.9

Look up INHIBITION of CN(C)C(=O)N1CCN(C(=O)c2ccccc2)CC2(CNC(=O)C2)C1 (stereo unspecified) and report it.
-0.804

Look up INHIBITION of CCn1cnnc1C1CCN(C(=O)c2cccc(OC)c2OC)CC1 and report it.
22.3

Look up INHIBITION of Cc1nc(CN2CCC3(CCN(Cc4cnn(C)c4)CC3)C2=O)cs1 and report it.
-22.1

* * *

Test system: Plasmodium berghei
ASSAY_METHOD_TEXT: Screen against P. berghei liver stage (PbLuc), transformed with Luciferase, at 10uM
Assay type: functional, HepG2
CONDITION_INFO: tested at 10 uM
Screen size: about 69,000 compounds; about 8,600 (12%) showed an effect of 50% or more. Shown is part of a subset that was picked to be rich in strong results.
ASSAY_METRIC: INHIBITION (%)
Numbers only here, please. The scale is %.

compound=CN(Cc1ccc(C#N)cc1)c1ncc(C(N)=O)cc1Cl assay_metric=INHIBITION value_measured=65.4

Look up INHIBITION of CN(Cc1ccc(C#N)cc1)C(=O)c1ccn(C)c(=O)c1 and report it.
33.4

Look up INHIBITION of CNc1nccc(-c2cn(C)nc2C)n1 and report it.
29.4

Look up INHIBITION of CNc1nc(CNC(=O)Nc2ccc(SC)c(F)c2)cs1 and report it.
-4.35

* * *

Tested on: Plasmodium berghei
ASSAY_METHOD_TEXT: Screen against P. berghei liver stage (PbLuc), transformed with Luciferase, at 10uM
Assay type: functional, HepG2
CONDITION_INFO: tested at 10 uM
Screen size: about 69,000 compounds; about 8,600 (12%) showed an effect of 50% or more. The full list was thinned out, with strong results kept by preference.
ASSAY_METRIC: INHIBITION
Answers without a unit are incomplete; give the number and then its unit.

compound="CC(C)CC(CNC(=O)NCc1cc[nH]n1)N1CCOCC1 (stereo unspecified)" value_measured=52%
compound=Cc1noc(C)c1CC(=O)NCCN1CCN(S(C)(=O)=O)CC1 value_measured=-47.8%
compound="O=C(NCc1cc[nH]n1)NCC(c1ccccc1)N1CCOCC1 (stereo unspecified)" value_measured=15.8%
compound=Cc1noc(C)c1CC(=O)NCCc1cccs1 value_measured=-26.9%
compound="Cc1noc(C)c1CNC(C(=O)N1CCOCC1)C(C)C (stereo unspecified)" value_measured=22.2%

Tell me INHIBITION of Cc1noc(C)c1C(=O)NCCN1CCOCC1 when tested on Plasmodium berghei.
-27.8%

* * *

System: Plasmodium berghei
ASSAY_METHOD_TEXT: Screen against P. berghei liver stage (PbLuc), transformed with Luciferase, at 10uM
Format: functional, HepG2
CONDITION_INFO: tested at 10 uM
About 8,600 (12%) of roughly 69,000 compounds showed an effect of 50% or more. This is one part of a sample in which strong results are shown more often than they occur.
ASSAY_METRIC: INHIBITION (%)
Numbers only here, please. The scale is %.

Here are 6 compounds together with their reported answers.
compound=COCC(=O)N1CCC(C)(c2cc(O)[nH]n2)CC1 unit_tag=% value_measured=23.9
compound="CC(C)N1CCOCC2(CCCN(C(=O)c3cn(C)cn3)C2)C1 (configuration not stated)" unit_tag=% value_measured=-27.9
compound="O=C(c1cccs1)N1CCOCC2(C1)CN(c1cccnc1)C(=O)CO2 (configuration not stated)" unit_tag=% value_measured=0.618
compound=Cc1cc(C(F)(F)F)nc(CNc2cc(C)nc3cc(C)nn23)n1 unit_tag=% value_measured=43.2
compound="O=C(CCn1cc(Cl)cn1)N1CCC2(CC1)OCCCC2O (configuration not stated)" unit_tag=% value_measured=2.79
compound="c1cncc(CN2CCCC3(COCCN(c4cncnc4)C3)C2)c1 (configuration not stated)" unit_tag=% value_measured=3.11

Look up INHIBITION of Cc1cc(NCc2cc(C)oc2C(F)(F)F)n2nc(C)cc2n1 and report it.
79.2

Look up INHIBITION of O=C(c1nc2c(o1)CN(CC1CC1)C2)N1CCCC1 and report it.
18.5

Look up INHIBITION of O=C(CCCn1ccnc1)N1CCC2(CC1)[C@H](O)C[C@@H]2OCCO and report it.
18

Look up INHIBITION of O=C1CCCN1Cc1nnc2n1CCN(Cc1ccco1)CC2 and report it.
-8.23

Look up INHIBITION of O=C(c1ccoc1)N1CCN(Cc2ccccc2F)CC1 and report it.
18.3

Look up INHIBITION of O=c1ccc2c([nH]1)CCC(NCc1ccc(F)cc1)C2 (configuration not stated) and report it.
45.1
